test_system: Human SV2A (Homo sapiens)
Sequence (Q7L0J3 whole entry): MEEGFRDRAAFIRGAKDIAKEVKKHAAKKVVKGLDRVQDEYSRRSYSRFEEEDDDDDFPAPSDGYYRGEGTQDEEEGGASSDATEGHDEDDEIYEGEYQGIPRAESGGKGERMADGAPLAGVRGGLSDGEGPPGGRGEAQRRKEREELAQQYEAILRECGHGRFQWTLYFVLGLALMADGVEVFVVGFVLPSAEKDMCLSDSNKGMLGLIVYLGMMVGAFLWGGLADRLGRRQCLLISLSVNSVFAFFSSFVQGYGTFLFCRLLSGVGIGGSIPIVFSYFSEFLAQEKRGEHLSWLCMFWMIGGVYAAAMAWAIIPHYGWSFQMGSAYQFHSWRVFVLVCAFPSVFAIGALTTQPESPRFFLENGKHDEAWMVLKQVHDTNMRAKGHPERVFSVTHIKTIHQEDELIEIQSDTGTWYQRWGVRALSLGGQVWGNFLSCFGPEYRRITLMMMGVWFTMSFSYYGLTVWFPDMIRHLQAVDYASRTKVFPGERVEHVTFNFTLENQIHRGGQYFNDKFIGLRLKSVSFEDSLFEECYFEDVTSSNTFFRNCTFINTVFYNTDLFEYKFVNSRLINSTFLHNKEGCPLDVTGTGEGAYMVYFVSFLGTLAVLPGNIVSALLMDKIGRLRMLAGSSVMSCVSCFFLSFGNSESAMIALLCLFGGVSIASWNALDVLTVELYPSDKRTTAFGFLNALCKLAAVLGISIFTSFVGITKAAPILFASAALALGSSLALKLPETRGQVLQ
pKi: −log10 of the molar value.
Would you kindly list pKi for each of these compounds?

Answered examples (5):
>>> experimental_value("COCc1nn2c(CN3CC(C4CC4(F)F)=CC3=O)c(C)nc2s1 (single isomer, unassigned)")
"7.50 to 8.00"
>>> experimental_value("COCc1nn2c(CN3CC(CC(F)(F)Cl)=CC3=O)c(C(F)(F)F)nc2s1")
"8.00 to 8.50"
>>> experimental_value("COCc1nn2c(CN3CC(C4CC4(F)F)=CC3=O)c(C(F)(F)F)nc2s1 (single isomer, unassigned)")
"8.00 to 8.50"
>>> experimental_value("COCc1nn2c(CN3CC(CC(C)(F)F)=CC3=O)c(C(F)F)nc2s1")
"8.00 to 8.50"
>>> experimental_value("CCCC1=CC(=O)N(Cc2c(C)nc3sc(COC)nn23)C1")
"8.00 to 8.50"

Batch request: pKi for each of the following compounds.
1. COCc1nn2c(CN3CC(CC(F)(F)F)=CC3=O)c(C)nc2s1
2. COCc1nn2c(CN3CC(CCC(F)(F)F)=CC3=O)c(C(F)F)nc2s1
3. Cc1nc2sc(CO)nn2c1CN1CC(CCC(F)(F)F)=CC1=O
4. CCCC1=CC(=O)N(Cc2c(C(F)F)nc3sc(COC)nn23)C1
5. O=C1C=C(CC(F)(F)F)CN1Cc1c(C(F)F)nc2sc(CO)nn12

Resp:
["8.00 to 8.50", "8.00 to 8.50", "6.50 to 7.50", "8.00 to 8.50", "6.50 to 7.50"]

Batch request: pKi for each of the following compounds.
1. COCc1nn2c(CN3CC(CCC(F)(F)F)=CC3=O)c(C(F)(F)F)nc2s1
2. CCCC1=CC(=O)N(Cc2c(Cl)nc3sc(COC)nn23)C1

Resp:
1: 8.00 to 8.50; 2: 8.00 to 8.50
